The origin of these recorded values is patent US7115635B2.

Protocol Notes: Measurement of blood (plasma) concentration
Type: in vivo
Details: female rat, LC/MS, administered orally and intravenously (route and dose for Cmax not stated)

Structure Notation	Cmax [ng/mL]
Nc1cccc(-c2csc(SCC(=O)NC3CCN(Cc4ccc(Cl)c(Cl)c4)CC3)n2)c1	3120

* * *

Target Of Assay: CCR3 (Homo sapiens)
Construct: Eosinophil separated from the peripheral blood of a healthy subject; endogenous in cells
Sequence (P51677 1-355): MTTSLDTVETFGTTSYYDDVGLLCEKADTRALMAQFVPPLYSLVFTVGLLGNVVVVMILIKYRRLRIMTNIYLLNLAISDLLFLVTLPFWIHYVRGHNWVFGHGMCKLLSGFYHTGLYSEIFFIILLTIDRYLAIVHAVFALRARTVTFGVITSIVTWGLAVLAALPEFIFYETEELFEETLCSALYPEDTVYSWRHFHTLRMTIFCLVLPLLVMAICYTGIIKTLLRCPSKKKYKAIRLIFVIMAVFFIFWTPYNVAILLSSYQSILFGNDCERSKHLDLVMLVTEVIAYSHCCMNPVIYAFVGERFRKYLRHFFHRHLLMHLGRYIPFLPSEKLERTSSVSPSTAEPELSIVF
Protocol Notes: Effect on intracellular calcium concentration in eosinophil on stimulation with CCL11
Details: human peripheral blood eosinophil, agonist CCL11 0.3 nmol/L, compound 5 min before stimulation, Fura-2 AM; read-out: IC50 of the increase in the intracellular calcium concentration
pIC50: −log10 of the molar value.

Compound	pIC50
N=C(N)Nc1nc(-c2ccc(OCCCC(=O)NC3CCN(Cc4ccc(Cl)c(Cl)c4)CC3)cc2)cs1 [Example 9, hydrate]	8.22
